This collection of values is drawn from patent US20240082212A1.

assay: Rat plasma pharmacokinetics after cumulative (QID) SC injections; details: male, Sprague-Dawley (CD), rat, plasma, sc, 20 mg/kg/day, Cmax, male rat plasma; parent analyte (total MDMA after Rac-MDMA); QID SC, total 20 mg/kg/day of the test article
readout_kind: Cmax (ng/mL)

INSERT INTO results (compound, unit_label, experimental_result) VALUES
  ('CNC(C)Cc1ccc2c(c1)OCO2 (single isomer, unassigned) [R-MDMA, R(−)-3,4-methylenedioxymethamphetamine]', 'ng/mL', 2550);

----------
experiment: Rat plasma pharmacokinetics after cumulative (QID) SC injections; conditions: male, Sprague-Dawley (CD), rat, plasma, sc, 5 mg/kg/day, Cmax, male rat plasma; parent analyte; QID SC, total 5 mg/kg/day of the test article
readout_kind: Cmax (ng/mL)

INSERT INTO results (compound, experimental_result) VALUES
  ('CNC(C)Cc1ccc2c(c1)OCO2 (single isomer, unassigned) [S-MDMA, S(+)-MDMA]', 447);

----------
biological target: Serotonin 5-HT2B (Homo sapiens, UniProt P41595)
Sequence (P41595 whole entry): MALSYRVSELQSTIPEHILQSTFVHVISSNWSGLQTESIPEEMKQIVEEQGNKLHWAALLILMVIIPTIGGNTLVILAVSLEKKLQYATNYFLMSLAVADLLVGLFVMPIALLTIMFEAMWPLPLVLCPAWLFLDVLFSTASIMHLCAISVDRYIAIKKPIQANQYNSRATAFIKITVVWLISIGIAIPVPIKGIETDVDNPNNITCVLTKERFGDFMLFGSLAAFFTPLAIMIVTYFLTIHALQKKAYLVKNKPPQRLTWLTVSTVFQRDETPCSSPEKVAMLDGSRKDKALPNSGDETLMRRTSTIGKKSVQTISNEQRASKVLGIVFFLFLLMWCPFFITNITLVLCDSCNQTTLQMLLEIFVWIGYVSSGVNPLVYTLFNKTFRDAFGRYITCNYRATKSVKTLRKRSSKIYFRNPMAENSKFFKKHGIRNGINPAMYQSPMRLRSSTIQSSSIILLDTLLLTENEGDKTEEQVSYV
readout_kind: Ki (µM)

INSERT INTO assay_data (compound, readout_kind, experimental_result) VALUES
  ('CNC(C)Cc1ccc2c(c1)OCO2 (single isomer, unassigned) [S-MDMA, S(+)-MDMA]', 'Ki', 7.65),
  ('CNC(C)Cc1ccc2c(c1)OCO2 (single isomer, unassigned) [R-MDMA, R(−)-3,4-methylenedioxymethamphetamine]', 'Ki', 0.89);

----------
experiment: Rat plasma pharmacokinetics after cumulative (QID) SC injections; conditions: male, CD (Sprague Dawley), rat, plasma, sc, 20 mg/kg/day, T1/2, male rat plasma; parent analyte; QID SC, total 20 mg/kg/day
readout_kind: half-life

INSERT INTO measurements (compound, readout_kind, experimental_result) VALUES
  ('CNC(C)Cc1ccc2c(c1)OCO2 (single isomer, unassigned) [S-MDMA, S(+)-MDMA]', 'half-life', '3.17 h');

----------
assay: Rat plasma pharmacokinetics after cumulative (QID) SC injections; settings: male, Sprague-Dawley (CD), rat, plasma, sc, 20 mg/kg/day, AUCTlast, male rat plasma; parent analyte; QID SC, total 20 mg/kg/day
readout_kind: AUC(0-t)

INSERT INTO measurements (compound, experimental_result) VALUES
  ('CNC(C)Cc1ccc2c(c1)OCO2 (single isomer, unassigned) [R-MDMA, R(−)-3,4-methylenedioxymethamphetamine]', '11300 ng·h/mL');

----------
molecular target: Serotonin 5-HT2A (Homo sapiens, UniProt P28223)
Sequence (P28223 whole entry): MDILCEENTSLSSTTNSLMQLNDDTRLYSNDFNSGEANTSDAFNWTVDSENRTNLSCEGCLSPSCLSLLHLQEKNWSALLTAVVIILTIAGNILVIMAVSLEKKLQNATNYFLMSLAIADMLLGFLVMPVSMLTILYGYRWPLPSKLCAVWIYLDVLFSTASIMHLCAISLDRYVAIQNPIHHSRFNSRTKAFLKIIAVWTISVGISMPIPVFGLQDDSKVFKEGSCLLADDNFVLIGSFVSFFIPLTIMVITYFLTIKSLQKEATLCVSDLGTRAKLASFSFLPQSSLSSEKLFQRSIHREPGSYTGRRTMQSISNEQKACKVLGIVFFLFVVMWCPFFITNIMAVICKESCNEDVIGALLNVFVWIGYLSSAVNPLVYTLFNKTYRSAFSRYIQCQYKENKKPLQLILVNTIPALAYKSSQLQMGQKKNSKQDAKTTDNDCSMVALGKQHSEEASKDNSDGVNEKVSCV
readout_kind: IC50 (µM)

INSERT INTO measurements (compound, readout_kind, experimental_result) VALUES
  ('CNC(C)Cc1ccc2c(c1)OCO2 (single isomer, unassigned) [R-MDMA, R(−)-3,4-methylenedioxymethamphetamine]', 'IC50', 9.91);

----------
Target or system Serotonin 5-HT2B (Homo sapiens): recorded IC50 listed per item.
readout_kind: IC50 (µM)

INSERT INTO results (molecule, readout_kind, unit_label, experimental_result) VALUES
  ('CNC(C)Cc1ccc2c(c1)OCO2 (single isomer, unassigned) [S-MDMA, S(+)-MDMA]', 'IC50', 'µM', 12),
  ('CNC(C)Cc1ccc2c(c1)OCO2 (single isomer, unassigned) [R-MDMA, R(−)-3,4-methylenedioxymethamphetamine]', 'IC50', 'µM', 1.4);

----------
assay: Rat plasma pharmacokinetics after cumulative (QID) SC injections; conditions: male, Sprague-Dawley (CD), rat, plasma, sc, 10 mg/kg/day, Cmax, male rat plasma; parent analyte (total MDMA after Rac-MDMA); QID SC, total 10 mg/kg/day of the test article
readout_kind: Cmax

INSERT INTO results (compound, readout_kind, experimental_result) VALUES
  ('CNC(C)Cc1ccc2c(c1)OCO2 (single isomer, unassigned) [R-MDMA, R(−)-3,4-methylenedioxymethamphetamine]', 'Cmax', '1140 ng/mL');

----------
test: Rat plasma pharmacokinetics after cumulative (QID) SC injections; details: male, Sprague-Dawley (CD), rat, plasma, sc, 10 mg/kg/day, T1/2, male rat plasma; parent analyte; QID SC, total 10 mg/kg/day
readout_kind: half-life (h)

INSERT INTO measurements (molecule, unit_label, experimental_result) VALUES
  ('CNC(C)Cc1ccc2c(c1)OCO2 (single isomer, unassigned) [R-MDMA, R(−)-3,4-methylenedioxymethamphetamine]', 'h', 1.01);

----------
assay: Rat plasma pharmacokinetics after cumulative (QID) SC injections; conditions: male, CD (Sprague Dawley), rat, plasma, sc, 5 mg/kg/day, T1/2, male rat plasma; parent analyte; QID SC, total 5 mg/kg/day
readout_kind: half-life (min)

INSERT INTO results (molecule, experimental_result) VALUES
  ('CNC(C)Cc1ccc2c(c1)OCO2 (single isomer, unassigned) [S-MDMA, S(+)-MDMA]', 45.2);

----------
assay: Rat plasma pharmacokinetics after cumulative (QID) SC injections; conditions: male, CD (Sprague Dawley), rat, plasma, sc, 5 mg/kg/day, AUC0-27 hr, male rat plasma; parent analyte; QID SC, total 5 mg/kg/day
readout_kind: AUC(0-t) (µg·h/mL)

INSERT INTO results (compound, experimental_result) VALUES
  ('CNC(C)Cc1ccc2c(c1)OCO2 (single isomer, unassigned) [S-MDMA, S(+)-MDMA]', 1.51);

----------
assay: Rat plasma pharmacokinetics after cumulative (QID) SC injections
readout_kind: AUC(0-t) (ng·h/mL)

INSERT INTO measurements (molecule, readout_kind, unit_label, experimental_result) VALUES
  ('CNC(C)Cc1ccc2c(c1)OCO2 (single isomer, unassigned) [R-MDMA, R(−)-3,4-methylenedioxymethamphetamine]', 'AUC(0-t)', 'ng·h/mL', 11800);
